// data source = PubChem BioAssay (NCI)

Test system: IGROV1 ovarian
Assay: NCI tumour cell line growth inhibition, 48 h
Reported GI50 values for a set of compounds

INSERT INTO measurements (compound, readout_label, result) VALUES
  ('O=C1NC(SCc2ccc(F)cc2)=N/C1=C/c1cccc(OCc2ccc(Cl)cc2)c1', 'GI50', '4.91 µM'),
  ('NCCSC(C[N+](=O)[O-])c1ccccc1Cl (centres undefined)', 'GI50', '2.89 µM'),
  ('CNc1ncc2cc(Oc3ccc(F)cc3F)c(=O)n(C)c2n1', 'GI50', '> 25 µM');

With those in mind, consider the next compound.
Task: What does the record list as GI50 for `O=C1c2ccn(CCCCN(CCO)CCO)c2C(=O)c2c1c(O)c1ccccc1c2O` ?
Result: 4.97 µM
